B1: OAS1 (parent)
chain: TPAKSLDKFIEDYLLPDTCFRMQI

Variants of: B1
ASSAY NAME: protein stability index of a GFP-peptide fusion (GPS, HEK-293T) (PSI 1-6); higher = more stable;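 further: lentivirally expressed fusions sorted by FACS into six bins by GFP to DsRed ratio, PSI derived from sequencing read proportions per bin multiplied by bin number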
MEASUREMENT PARAMETERS: c terminus: a fixed tail appended
# protein stability index per entry
VALUE TYPE: protein stability index

SEQUENCE INPUT | ENDPOINT VALUE
TPAKSLDKFIEDYLLPDTLFRMQI [C19L] | 2.02
TPAKSLDKFIEDYLLPDTCFIMQI [R21I] | 2.93
TPAKSLDKFIEDYWLPDTCFRMQI [L14W] | 2.18
TPAKSLDKFLEDYLLPDTCFRMQI [I10L] | 3.56
TPAKSLDKFIEDYLLPDGCFRMQI [T18G] | 3.04
TPAKSLDKFIEDFLLPDTCFRMQI [Y13F] | 3.4
TPAKSLDKFIEDYLLPDTCQRMQI [F20Q] | 1.58
TPAKSLDKFIEDYLLPDTCFLMQI [R21L] | 3.64
TPAKSLDKFIEKYLLPDTCFRMQI [D12K] | 2.75
TPAKSLDKFIEDYDLPDTCFRMQI [L14D] | 1.77
EPAKSLDKFIEDYLLPDTCFRMQI [T1E] | 1.7
TPAKSLDKFIEDYLLPDTCFHMQI [R21H] | 3.05
TPAKSLDKFIEDYLLPDTCFRMLI [Q23L] | 3.03
TPAKSLDKFIEDYLLPDTCYRMQI [F20Y] | 2.56
TPAKSLDKFIEDYLNPDTCFRMQI [L15N] | 2.21
TPAKSLDKFIEDYLLPDTCFRHQI [M22H] | 2.28
TPAKSLDKFIEDYLLPDTHFRMQI [C19H] | 2.96
TPAKSLDKFIEDYLLPDTCFRWQI [M22W] | 2.45
TPAKSLDKFIEDYLLPDQCFRMQI [T18Q] | 2.89
TPAKSLDKFIEDYLLIDTCFRMQI [P16I] | 2.41
TPAKSLDKMIEDYLLPDTCFRMQI [F9M] | 3.26
TPAKSLDKFIEDYLLPDTCFRMQH [I24H] | 2.22
TPAKSLWKFIEDYLLPDTCFRMQI [D7W] | 3.11
TPAKSLDKFINDYLLPDTCFRMQI [E11N] | 3.04
TPAKSLDKQIEDYLLPDTCFRMQI [F9Q] | 2.15
TPAKSLDKYIEDYLLPDTCFRMQI [F9Y] | 1.96
TPAKSLDKFIEDYLLPDTCFRMQL [I24L] | 2.15
TPAKSLDKFIEDYLLPDNCFRMQI [T18N] | 2.41
TPAKSLDKFIEDCLLPDTCFRMQI [Y13C] | 3.56
NPAKSLDKFIEDYLLPDTCFRMQI [T1N] | 3.42
TPLKSLDKFIEDYLLPDTCFRMQI [A3L] | 2.85
TPAKSLDKPIEDYLLPDTCFRMQI [F9P] | 1.97
TPAKSLDKFIEDYLGPDTCFRMQI [L15G] | 2.43
TPAKSLDKFIEDYLLVDTCFRMQI [P16V] | 3.9
TPAKSLDKFIEDYLLSDTCFRMQI [P16S] | 2.49
TPAKSLDKFIEDYLHPDTCFRMQI [L15H] | 2.12
TPAKSLDKFIEDYLLPDTCFRMVI [Q23V] | 2.56
TPCKSLDKFIEDYLLPDTCFRMQI [A3C] | 3.23
TPAKSLDKFIEDYLLPDTCFRMNI [Q23N] | 1.42
TPAKSLDKFIEDYLLPTTCFRMQI [D17T] | 2.03
TPAKSLPKFIEDYLLPDTCFRMQI [D7P] | 1.73
TPAKSLDKFREDYLLPDTCFRMQI [I10R] | 2.78
TPAKSLDKFHEDYLLPDTCFRMQI [I10H] | 1.92
TPAKSLDKFICDYLLPDTCFRMQI [E11C] | 2.38
TPAKSLDKFIEDYLDPDTCFRMQI [L15D] | 1.74
TPAKSLDKFIEDYLLPDTCFRAQI [M22A] | 1.93
TPAKSLDKFIEDLLLPDTCFRMQI [Y13L] | 3.57
TPNKSLDKFIEDYLLPDTCFRMQI [A3N] | 2.47
TPAKSLDKFIEDYLLPDYCFRMQI [T18Y] | 3.93
TPAKSLDKFIEDYLLPETCFRMQI [D17E] | 2.69
TPAKSLDKFIEDYLKPDTCFRMQI [L15K] | 2.07
TPAKSLDEFIEDYLLPDTCFRMQI [K8E] | 3.06
TPAKSLDKFIEDYLLPDMCFRMQI [T18M] | 2.36
TPAKSLDSFIEDYLLPDTCFRMQI [K8S] | 2.43
TPAKSLDTFIEDYLLPDTCFRMQI [K8T] | 3.17
TPAKSLDKRIEDYLLPDTCFRMQI [F9R] | 2.08
TPAKSLDKFIEDYFLPDTCFRMQI [L14F] | 3.94
TPQKSLDKFIEDYLLPDTCFRMQI [A3Q] | 2.56
TPAMSLDKFIEDYLLPDTCFRMQI [K4M] | 1.67
TPAKSLDKFIEDYLLPDTWFRMQI [C19W] | 3.2
TPAKSLDKFIEDYLLPDTCDRMQI [F20D] | 2.43
TPAKCLDKFIEDYLLPDTCFRMQI [S5C] | 2.19
TQAKSLDKFIEDYLLPDTCFRMQI [P2Q] | 2.97
TPAKSLDKFIEDYLLPPTCFRMQI [D17P] | 3.25
APAKSLDKFIEDYLLPDTCFRMQI [T1A] | 2.48
TPAKSLDKFIADYLLPDTCFRMQI [E11A] | 2.77
TPAKSLDKFKEDYLLPDTCFRMQI [I10K] | 1.31
RPAKSLDKFIEDYLLPDTCFRMQI [T1R] | 4.07
TPAKSLDKFIEDYILPDTCFRMQI [L14I] | 2.08
TGAKSLDKFIEDYLLPDTCFRMQI [P2G] | 3.49
TPAKSLDKFIEDYLLPDWCFRMQI [T18W] | 2.58
TPAKSLDGFIEDYLLPDTCFRMQI [K8G] | 1.62
